Assay: Standard protocol for determination of kcat and KM (continuous spectrophotometric assay, Acetyl CoA hydrolysis at 235 nm)
Assay type: biochemical
Details: purified protein; about 23° C.; 20 mM HEPES pH 6.8, 10% ethylene glycol, 0.2 mM acetyl CoA
measured-parameter: log10 Kcat (log10 of the value in min⁻¹)
Friendly reminder: values = log10 of Kcat, unit min⁻¹.

Solved cases (2 shown):
SEQ ID NO: 266: GAT polypeptide (protein, 14_2C1, GAT polypeptide) MIEVKPINAEDTYEIRHRILRPNQPLEACKYETDLLRGAFHLGGYYRGKLVSIASFHQAEHPELEGQKQYQLRGMATLEGYREQKAGSTLIRHAEELLRKKGADLLWCNARTSASGYYKKLGFSEQGEVYDTPPTGPHILMYKKLT	2.13
SEQ ID NO: 370: GAT polypeptide (protein, 4B_17A1, GAT polypeptide) MIEVKPINAEDTYEIRHRILRPNQPLEACKYETDLLGGTFHLGGYYRGKLISIASFHQAEHPELEGQKQYQLRGMATLEEYREQKAGSTLIRHAEELLRKKGADLLWCNARTSASGYYEKLGFSEQGEVYDIPPIGPHILMYKKLT	1.28

// switching to the query molecule
q: Supply reported log10 Kcat belonging to this molecule: SEQ ID NO: 365: GAT polypeptide (protein, 4A_1B11, GAT polypeptide) MIEVKPINAEDTYEIRHRILRPNQPLEACMYETDLLGGTFHLGGYYRGKLISIASFHQAEHPELEGQKQYQLRGMATLEGYREQKAGSTLIRHAEELLRKKGADLLWCNARTSASGYYEKLGFSEQGEVYDIPPIGPHILMYKKLT
a: 1.37
